Tested on: DU-145 prostate
assay_text: NCI tumour cell line growth inhibition, 48 h; in the data active means GI50 below about 0.43 µM; inactive means the rest
Possible outcomes: active, inactive

>>> label_class("O=C1c2ccccc2-c2c1c1ccccc1c(=O)n2CCCn1ccnc1")
"inactive"
>>> label_class("CCNC(=O)O[C@H]1CN[C@H](C#Cc2cc3ncnc(Nc4ccc(OCc5cccc(F)c5)c(Cl)c4)c3s2)C1")
"inactive"
>>> label_class("COc1cc(-c2nc(SCCC(C)C)nc(Nc3ccc(S(N)(=O)=O)cc3)c2C#N)cc(OC)c1OC")
"inactive"
>>> label_class("O=C1C[C@@H]2/C(=C(O)\\C=C\\c3ccccc3)C(=O)C=C[C@@H]2O1")
"inactive"
>>> label_class("O=C(/C=C/c1ccc(C(F)(F)F)cc1)c1ccc(Nc2nc(NCCO)nc(Nc3ccc(Cl)cc3)n2)cc1")
"inactive"
>>> label_class("COC(=O)CC[C@H](Cc1ccccc1)NC(=O)c1csc([C@@H](C[C@H](C(C)C)N(C)C(=O)[C@@H](NC(=O)[C@H]2CCCCN2C)C(C)C)OC(C)=O)n1")
"active"
>>> label_class("CCOC(=O)c1c2c(n3ccccc13)C(=O)c1ncccc1C2=O")
"active"
>>> label_class("Cc1cc(N2CCOCC2)cc2[nH]c(-c3c(NC[C@@H](O)c4cccc(Cl)c4)cc[nH]c3=O)nc12")
"inactive"
>>> label_class("COc1cc2c(cc1OCCCC(=O)Nc1ccc3ccc4cccc5ccc1c3c45)N=C[C@@H]1CCCN1C2=O")
"active"
>>> label_class("Cc1ccc(O)c(NC(=O)c2ccc(CNc3ccnc(C(F)(F)F)c3)cc2)c1")
"inactive"
>>> label_class("Cc1cnc(C(=O)Nc2nc3ccc(S(=O)(=O)Nc4ccc(C5(C(F)(F)F)CC5)cc4)cc3[nH]2)cn1")
"active"
>>> label_class("O=C1C(=O)c2cccnc2-c2ncccc21")
"active"

* * *

System: MALME-3M melanoma
assay_text: NCI tumour cell line growth inhibition, 48 h; in the data active means GI50 below about 0.43 µM; inactive means the rest
Labels: active, inactive

>>> label_class("Cc1cc(N2CCOCC2)cc2[nH]c(-c3c(NC[C@@H](O)c4cccc(Cl)c4)cc[nH]c3=O)nc12")
"inactive"
>>> label_class("O=c1c(-c2ccccc2)coc2cc(OC/C(=N/O)c3ccccc3)ccc12")
"inactive"
>>> label_class("CCCCCCCc1cc2c3c(nc4ccccc42)C(=O)c2cccnc2-c3n1")
"inactive"
>>> label_class("CCN1CCN(CC(=O)N2c3cccc4cccc(c34)N(C(=O)CN3CCN(CC)CC3)C2c2cn(-c3ccccc3)nc2-c2cccc([N+](=O)[O-])c2)CC1")
"inactive"
>>> label_class("O=C1C(=O)c2cccnc2-c2ncccc21")
"active"

* * *

Tested on: NCI-H226 lung
assay_text: NCI tumour cell line growth inhibition, 48 h
result_type: TGI

>>> val("Cc1cc(C)c(-n2c(-c3ccc(Br)cc3)cs/c2=N\\N=C2C=C(C(C)(C)C)C(=O)C(C(C)(C)C)=C2)c(C)c1")
"> 100 µM"
>>> val("O=Cc1c(O)c(C(=O)Nc2ccc3[nH]c(=O)[nH]c3c2)cc2ccccc12")
"> 100 µM"
>>> val("CCNC(=O)O[C@H]1CN[C@H](C#Cc2cc3ncnc(Nc4ccc(OCc5cccc(F)c5)c(Cl)c4)c3s2)C1")
"> 21.1 µM"
>>> val("CC(=O)OCC1OC(n2c(-c3ccc(C)cc3)cc(-c3ccccc3)c(C#N)c2=S)C(OC(C)=O)C(OC(C)=O)C1OC(C)=O (stereo unspecified)")
"> 100 µM"
>>> val("CO/N=C(\\C)c1cccc(Nc2c3ccccc3nc3occc23)c1")
"33.7 µM"
>>> val("CC(C)(C)OC(=O)N1C(c2cccnc2)=CC[C@H]2C3CC=C(c4cccnc4)[C@@]3(C)CC[C@@H]21 (stereo partly specified)")
"15.1 µM"
>>> val("N#Cc1cccc(/C=N/N=C(\\N)NO)c1")
"> 100 µM"
>>> val("CCOC(=O)c1c(N2CCOCC2)[nH]c(=O)c(C(c2ccco2)c2c(O)c(C(=O)OCC)c(N3CCOCC3)[nH]c2=O)c1O")
"> 100 µM"
>>> val("O=C(O)CN1C(=O)C(Cc2ccc(O)cc2)N=C(c2cccc(O)c2)c2ccccc21 (stereo unspecified)")
"> 100 µM"
>>> val("Cc1cn(CC2=NCC(C)N2)c(=O)[nH]c1=O (stereo unspecified)")
"> 100 µM"
>>> val("COc1ccc(-c2ccc(-c3ccc(C(=N)N)o3)o2)cc1")
"42.8 µM"
>>> val("CC(=O)OCc1ccc2oc(=O)c(C(=O)Oc3ccccc3)cc2c1")
"> 100 µM"
>>> val("Cc1cnc(C(=O)NNc2nc3sc4c(c3c(=O)n2C)C(C)CCC4)cn1 (stereo unspecified)")
"3.03 µM"
>>> val("CCOC(=O)c1ccc(NCC#CCN2CCCCC2)cc1")
"> 100 µM"
>>> val("CCOC(=O)NC(Nc1ccc(C(=O)OCC)cc1)(C(F)(F)F)C(F)(F)F")
"> 100 µM"
>>> val("CC(=O)c1cc2ccccc2oc1=O")
"> 100 µM"
>>> val("O=C(/C=C/c1ccc(C(F)(F)F)cc1)c1ccc(Nc2nc(NCCO)nc(Nc3ccc(Cl)cc3)n2)cc1")
"18.7 µM"
>>> val("Cn1c2ccccc2c(=O)c2cccc(C(=O)NC(CCC(N)=O)C(=O)O)c21 (stereo unspecified)")
"> 100 µM"
>>> val("CC1(C)C2C=CC1C(=O)CC2 (stereo unspecified)")
"> 100 µM"
>>> val("Cn1cc(C(=O)C[n+]2ccccc2)c2ccccc21")
"59.1 µM"
>>> val("O=C(O)CCc1nn2c(nc1=O)sc1ccc3ccccc3c12")
"> 100 µM"
